# SYSTEM_UNDER_TEST: Phosphatidylinositol 4,5-bisphosphate 3-kinase catalytic subunit alpha isoform (Homo sapiens)
# Sequence (P42336 whole entry, canonical isoform): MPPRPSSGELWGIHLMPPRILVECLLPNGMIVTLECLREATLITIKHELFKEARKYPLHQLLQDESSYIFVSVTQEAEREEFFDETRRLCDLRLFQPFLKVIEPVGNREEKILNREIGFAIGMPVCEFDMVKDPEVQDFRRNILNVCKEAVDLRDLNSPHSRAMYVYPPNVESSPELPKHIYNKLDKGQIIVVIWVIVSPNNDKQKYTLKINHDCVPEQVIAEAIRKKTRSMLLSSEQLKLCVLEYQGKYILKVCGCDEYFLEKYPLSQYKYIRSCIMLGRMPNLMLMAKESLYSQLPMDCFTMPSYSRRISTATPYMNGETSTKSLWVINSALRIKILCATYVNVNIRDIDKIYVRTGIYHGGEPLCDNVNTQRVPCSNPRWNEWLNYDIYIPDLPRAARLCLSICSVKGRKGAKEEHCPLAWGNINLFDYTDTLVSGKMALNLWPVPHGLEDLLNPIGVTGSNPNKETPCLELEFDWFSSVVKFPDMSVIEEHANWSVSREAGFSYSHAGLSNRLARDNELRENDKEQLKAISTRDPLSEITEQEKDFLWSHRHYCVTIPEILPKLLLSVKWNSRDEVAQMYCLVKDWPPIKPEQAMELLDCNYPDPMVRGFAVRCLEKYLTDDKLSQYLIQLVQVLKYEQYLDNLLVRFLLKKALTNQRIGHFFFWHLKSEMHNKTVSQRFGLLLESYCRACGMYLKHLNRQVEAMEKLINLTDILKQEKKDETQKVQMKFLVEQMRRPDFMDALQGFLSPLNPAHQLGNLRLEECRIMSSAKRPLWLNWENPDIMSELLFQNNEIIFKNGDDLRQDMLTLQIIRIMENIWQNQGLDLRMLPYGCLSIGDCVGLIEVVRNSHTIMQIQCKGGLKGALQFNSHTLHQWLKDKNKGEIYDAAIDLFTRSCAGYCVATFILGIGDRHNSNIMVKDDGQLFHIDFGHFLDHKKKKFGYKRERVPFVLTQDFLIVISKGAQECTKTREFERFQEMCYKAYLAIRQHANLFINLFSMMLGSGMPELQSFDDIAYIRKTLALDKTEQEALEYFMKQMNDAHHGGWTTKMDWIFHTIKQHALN
# EXPERIMENT_SUMMARY: Inhibition of PI3Kalpha (unknown origin)
MEASURED_ATTRIBUTE: IC50

>>> assay_value("Cc1ccc([N+](=O)[O-])cc1S(=O)(=O)Nc1nc(-c2cnn3ccc(Br)cc23)cs1")
"1.26 µM"
>>> assay_value("Cc1ccc([N+](=O)[O-])cc1Cc1nc(-c2cnn3ccc(Br)cc23)cs1")
"> 1 µM"
>>> assay_value("Cc1ccc([N+](=O)[O-])cc1C(=O)N[C@H]1CCCN(Cc2cnn3ccc(C#N)cc23)C1")
"> 1 µM"
>>> assay_value("Cc1ccc([N+](=O)[O-])cc1C(=O)N[C@@H]1CCCN(Cc2cnn3ccc(C#N)cc23)C1")
"> 1 µM"
>>> assay_value("N#Cc1cc(S(=O)(=O)c2nc(-c3cnn4ccc(Br)cc34)cs2)ccc1NCCN1CCOCC1")
"2.13 µM"

* * *

# SYSTEM_UNDER_TEST: Phosphatidylinositol 4,5-bisphosphate 3-kinase catalytic subunit delta isoform (Homo sapiens, UniProt O00329)
# Sequence (O00329 whole entry, canonical isoform): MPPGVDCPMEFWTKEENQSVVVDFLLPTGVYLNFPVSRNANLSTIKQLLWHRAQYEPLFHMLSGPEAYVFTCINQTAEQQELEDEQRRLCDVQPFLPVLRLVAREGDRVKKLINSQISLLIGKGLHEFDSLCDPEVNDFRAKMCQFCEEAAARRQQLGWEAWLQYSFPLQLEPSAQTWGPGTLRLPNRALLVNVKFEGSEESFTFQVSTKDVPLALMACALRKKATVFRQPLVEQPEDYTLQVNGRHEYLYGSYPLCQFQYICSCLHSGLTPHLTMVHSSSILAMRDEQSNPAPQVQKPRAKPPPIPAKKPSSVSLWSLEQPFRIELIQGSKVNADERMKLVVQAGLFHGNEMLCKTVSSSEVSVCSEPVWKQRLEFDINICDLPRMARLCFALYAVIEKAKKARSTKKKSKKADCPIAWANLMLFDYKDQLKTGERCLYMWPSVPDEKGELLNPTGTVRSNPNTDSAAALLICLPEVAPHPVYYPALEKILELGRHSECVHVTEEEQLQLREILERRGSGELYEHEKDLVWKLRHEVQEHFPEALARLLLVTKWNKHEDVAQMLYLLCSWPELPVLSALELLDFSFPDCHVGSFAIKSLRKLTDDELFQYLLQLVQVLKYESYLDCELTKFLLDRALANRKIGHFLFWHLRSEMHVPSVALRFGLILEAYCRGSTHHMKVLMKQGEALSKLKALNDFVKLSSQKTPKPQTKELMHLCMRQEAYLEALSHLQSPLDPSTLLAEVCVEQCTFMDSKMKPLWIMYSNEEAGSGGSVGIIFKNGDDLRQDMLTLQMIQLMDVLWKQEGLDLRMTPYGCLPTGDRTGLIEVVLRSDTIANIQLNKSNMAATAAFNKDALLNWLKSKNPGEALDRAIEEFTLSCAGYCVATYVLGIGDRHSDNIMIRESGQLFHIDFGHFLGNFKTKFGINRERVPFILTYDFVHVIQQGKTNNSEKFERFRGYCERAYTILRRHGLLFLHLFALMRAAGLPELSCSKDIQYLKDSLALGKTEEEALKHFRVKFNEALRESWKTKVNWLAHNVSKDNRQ
# EXPERIMENT_SUMMARY: Inhibition of PI3Kdelta (unknown origin)
pIC50: −log10 of the molar value.
MEASURED_ATTRIBUTE: pIC50

>>> assay_value("Cc1ccc([N+](=O)[O-])cc1S(=O)(=O)N[C@H]1CCCN(Cc2cnn3ccc(C#N)cc23)C1")
"< 6.00"
>>> assay_value("Cc1ccc([N+](=O)[O-])cc1S(=O)(=O)N[C@@H]1CCCN(Cc2cnn3ccc(C#N)cc23)C1")
"< 6.00"
>>> assay_value("CN(C)CCN(C)c1ccc(C#N)cc1[S+]([O-])c1nc(-c2cnn3ccc(Br)cc23)cs1 (stereo not drawn)")
6.60
>>> assay_value("Cc1ccc([N+](=O)[O-])cc1CSc1nc(-c2cnn3ccc(Br)cc23)cs1")
"< 6.00"
>>> assay_value("CN(C)CCN(C)c1ccc(S(=O)(=O)c2nc(-c3cnn4ccc(Br)cc34)cs2)cc1C#N")
6.19
>>> assay_value("O=[N+]([O-])c1cccc([S+]([O-])c2nc(-c3cnn4ccc(Br)cc34)cs2)c1 (stereo not drawn)")
6.49
>>> assay_value("Cc1ccc([N+](=O)[O-])cc1Cc1nc(-c2cnn3ccc(Br)cc23)cs1")
"< 6.00"
>>> assay_value("Cc1ccc([N+](=O)[O-])cc1S(=O)(=O)N1CCCN(Cc2cnn3ccc(C#N)cc23)CC1")
"< 6.00"
>>> assay_value("Cc1ccc([N+](=O)[O-])cc1C(=O)N[C@@H]1CCN(Cc2cnn3ccc(C#N)cc23)C1")
"< 6.00"
>>> assay_value("Cc1ccc([N+](=O)[O-])cc1S(=O)(=O)Nc1nc(-c2cnn3ccc(Br)cc23)cs1")
"< 6.00"
>>> assay_value("Cc1ccc([N+](=O)[O-])cc1C(=O)N[C@H]1CCN(Cc2cnn3ccc(C#N)cc23)C1")
"< 6.00"
>>> assay_value("Cc1ccc([N+](=O)[O-])cc1S(=O)(=O)NC1CN(Cc2cnn3ccc(C#N)cc23)C1")
"< 6.00"
>>> assay_value("Cc1ccc([N+](=O)[O-])cc1S(=O)(=O)NC1CCN(Cc2cnn3ccc(C#N)cc23)CC1")
"< 6.00"
>>> assay_value("Cc1ccc([N+](=O)[O-])cc1C(=O)N[C@H]1CCCN(Cc2cnn3ccc(C#N)cc23)C1")
"< 6.00"
>>> assay_value("N#Cc1cc(S(=O)(=O)c2nc(-c3cnn4ccc(Br)cc34)cs2)ccc1NCCN1CCOCC1")
6.62
>>> assay_value("Cc1ccc([N+](=O)[O-])cc1S(=O)(=O)N[C@H]1CCN(Cc2cnn3ccc(C#N)cc23)C1")
"< 6.00"
>>> assay_value("Cc1ccc([N+](=O)[O-])cc1S(=O)(=O)N1CCC(c2cnn3ccc(Br)cc23)CC1")
"< 6.00"
>>> assay_value("Cc1ccc([N+](=O)[O-])cc1S(=O)(=O)C/C=C/c1cnn2ccc(Br)cc12")
5.47
